- Test system: 2C TCR mouse CD8+ T cells, vesicle binding, flow cytometry
- Measurement notes: modulators of T cell-vesicle binding via LFA-1, confirmation, powder samples, single concentration, mouse 2C TCR, flow cytometry (AID 504568);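 further: lower values mean less vesicle binding and point to an inhibitor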
- Measurement setup: measured here: CD8+ cell vesicle fluorescence mean, stronger effect = lower value
Measured mean fluorescence percent response of individual entries
# number only, unit % dropped from output

I have this compound here, Cc1ccccc1C(=O)N1CCC(C(=O)Nc2ccc(C)c(S(=O)(=O)N3CCCCC3)c2)CC1 , and I need its recorded mean fluorescence percent response.
130

I have this compound here, O=C(NCC1CCCCC1)c1ccc(Cl)c(S(=O)(=O)N2CCOCC2)c1 , and I need its recorded mean fluorescence percent response.
136

I have this compound here, CCOC(=O)c1c(N2C(=O)CC(Sc3ccccc3C(=O)O)C2=O)sc2c1CCCC2 (configuration not stated) , and I need its recorded mean fluorescence percent response.
59.9

These data points were gathered from PubChem BioAssay AID504568.
